The following molecules are shown together with reported TGI values.
Test system: CCRF-CEM leukemia
Assay: NCI tumour cell line growth inhibition, 48 h

[
  {
    "molecule": "Cn1c(N/N=C/c2ccc(Cl)cc2)nc(-c2ccc(Cl)cc2)c(C#N)c1=O",
    "TGI": "> 100 µM"
  },
  {
    "molecule": "c1ccc(N=NNNc2ccc(-c3nc4ccccc4[nH]3)cc2)cc1",
    "TGI": "56.1 µM"
  },
  {
    "molecule": "COC(=O)C(Cc1ccccc1)NC(=O)CNC(=O)CSc1nnc(COc2ccc(Cl)cc2)n1-c1ccccc1 (configuration not stated)",
    "TGI": "7.42 µM"
  },
  {
    "molecule": "Cc1ccc2c3c1O[C@H]1c4nc5ccccc5cc4C[C@@]4(O)[C@@H](C2)N(CC2CC2)CC[C@]314",
    "TGI": "22.3 µM"
  },
  {
    "molecule": "C/C(=N/O)c1cccc(Nc2nc3ccccc3c3[nH]c4ccccc4c23)c1",
    "TGI": "> 100 µM"
  },
  {
    "molecule": "Clc1ccc(-c2nc(-c3ccc(Cl)cc3)[s+]s2)cc1",
    "TGI": "98.6 µM"
  },
  {
    "molecule": "CCOC(=O)/C=C/c1ccc(C(=O)OCC)[nH]1",
    "TGI": "> 100 µM"
  },
  {
    "molecule": "COc1ccc([N+](=O)[O-])c2c(NCC(O)CO)ccnc12 (configuration not stated)",
    "TGI": "> 100 µM"
  },
  {
    "molecule": "O=C(O)C(Cc1cccs1)C(=O)O",
    "TGI": "> 100 µM"
  },
  {
    "molecule": "CC(=O)Nc1ccc(Nc2nc(=O)[nH]c(=O)[nH]2)cc1",
    "TGI": "> 100 µM"
  },
  {
    "molecule": "Cc1ccc(C)c(NC(=O)/C(=N\\NC(N)=S)C(C#N)c2ccccc2)c1 (configuration not stated)",
    "TGI": "> 100 µM"
  },
  {
    "molecule": "CC(=O)Oc1ccc2c(c1)CC[C@@H]1C2[C@@H](O[N+](=O)[O-])C[C@@]2(C)C1CC[C@@H]2O (some centres not stated)",
    "TGI": "> 83.2 µM"
  },
  {
    "molecule": "O=C(N=Nc1c(O)[nH]c2ccccc12)c1ccccc1O",
    "TGI": "> 100 µM"
  },
  {
    "molecule": "CCCCCCCCOCC1S(=O)(=O)OCCOS1(=O)=O",
    "TGI": "> 100 µM"
  },
  {
    "molecule": "Cn1cnc([N+](=O)[O-])c1Sc1ncnc2nc[nH]c12",
    "TGI": "> 100 µM"
  },
  {
    "molecule": "CN(C)c1ccc(C(c2ccc(N(C)C)cc2)c2ccc([N+](=O)[O-])cc2)cc1",
    "TGI": "> 100 µM"
  },
  {
    "molecule": "CCCN(CCCCC(NC(C)=O)C(=O)NCc1ccccc1)C(=O)NC (configuration not stated)",
    "TGI": "> 100 µM"
  },
  {
    "molecule": "CCCCCCCCCC[C@@H](O)[C@@H]1CC[C@@H]([C@@H]2CC[C@@H]([C@@H](O)CCCCCCCCCCC(O)CC3=CC(C)OC3=O)O2)O1 (some centres not stated)",
    "TGI": "> 10 µM"
  },
  {
    "molecule": "O=C(Nc1ccc(Br)cc1)c1cc(Br)cc(Br)c1O",
    "TGI": "> 100 µM"
  },
  {
    "molecule": "c1ccc2c(c1)SC1Sc3ccccc3[S+]21 (configuration not stated)",
    "TGI": "49.6 µM"
  },
  {
    "molecule": "COc1ccc(N=Cc2ccc(N(CCC#N)CCC#N)cc2)cc1",
    "TGI": "> 100 µM"
  },
  {
    "molecule": "Cn1cc(NC(=O)c2cc(NC(=O)CCCCCC(=O)Nc3cc(C(=O)Nc4cc(C(=O)NCCC(=N)N)n(C)c4)n(C)c3)cn2C)cc1C(=O)NCCC(=N)N",
    "TGI": "> 100 µM"
  },
  {
    "molecule": "CCOC(=O)c1c2ccc(/C=C/C(=O)OC)ccc-2c(C(=O)OCC)c1N",
    "TGI": "> 100 µM"
  },
  {
    "molecule": "NS(=O)(=O)c1ccc(/C=C/c2cccc(O)c2)cc1",
    "TGI": "> 100 µM"
  },
  {
    "molecule": "O=C(/C=C/c1ccc([N+](=O)[O-])o1)NNC(=O)c1cc2ccccc2cc1O",
    "TGI": "> 100 µM"
  },
  {
    "molecule": "Nc1nc(N)c2ncn(CC(CO)CC(c3ccccc3)P(=O)(O)O)c2n1 (configuration not stated)",
    "TGI": "> 100 µM"
  },
  {
    "molecule": "CN(C)CCNC(=O)c1cccc(CO)c1[N+](=O)[O-]",
    "TGI": "> 100 µM"
  },
  {
    "molecule": "CC1=C2N3C[C@@H](n4c(=O)n(C)c(=O)n43)C23CCC1n1c(=O)n(C)c(=O)n13",
    "TGI": "> 100 µM"
  },
  {
    "molecule": "CCOC(=O)/C=C(/CN1C(=O)c2ccccc2C1=O)c1ccccc1",
    "TGI": "> 100 µM"
  },
  {
    "molecule": "COc1cc2c(cc1OCCCC(=O)Nc1cc(C(=O)Nc3cc(C(=O)NCCCN(C)C)n(C)n3)n(C)n1)N=CC1CCCN1C2=O (configuration not stated)",
    "TGI": "29.7 µM"
  },
  {
    "molecule": "Cc1cc2occ(C)c(=O)c2c2c1OC(C)(C)S2",
    "TGI": "> 100 µM"
  },
  {
    "molecule": "COc1ccc(-c2cn3c(n2)sc2cc(C)ccc23)cc1",
    "TGI": "> 100 µM"
  },
  {
    "molecule": "CCOC(OC1=C(C#N)CCC1)C(CC)[Se]c1ccccc1 (configuration not stated)",
    "TGI": "> 100 µM"
  },
  {
    "molecule": "CO[P@]1(=O)O[C@@H](c2ccccc2)[C@H](O)[C@]1(O)c1ccccc1",
    "TGI": "> 100 µM"
  },
  {
    "molecule": "CC(=O)C(=C(I)I)c1ccccc1",
    "TGI": "31.7 µM"
  },
  {
    "molecule": "Nc1ncnc2c1ncn2C1OC(C(=O)O)C(O)C1O (configuration not stated)",
    "TGI": "> 100 µM"
  },
  {
    "molecule": "NC(N)=N/N=C/c1c(-c2cc(Cl)sc2Cl)nc2n1CCS2",
    "TGI": "19.6 µM"
  }
]
